- tested.system: Human plasma plasmin (Homo sapiens, UniProt P00747)
- Sequence (P00747 581-810 limits assumed): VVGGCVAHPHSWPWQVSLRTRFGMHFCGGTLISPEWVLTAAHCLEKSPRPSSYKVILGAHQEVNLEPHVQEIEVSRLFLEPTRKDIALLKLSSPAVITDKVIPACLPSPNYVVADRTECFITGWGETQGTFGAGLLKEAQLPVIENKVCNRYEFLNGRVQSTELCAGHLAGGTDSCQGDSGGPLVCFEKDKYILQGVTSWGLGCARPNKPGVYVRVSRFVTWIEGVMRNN
- Sequence (P00747 97-580 partner limits assumed): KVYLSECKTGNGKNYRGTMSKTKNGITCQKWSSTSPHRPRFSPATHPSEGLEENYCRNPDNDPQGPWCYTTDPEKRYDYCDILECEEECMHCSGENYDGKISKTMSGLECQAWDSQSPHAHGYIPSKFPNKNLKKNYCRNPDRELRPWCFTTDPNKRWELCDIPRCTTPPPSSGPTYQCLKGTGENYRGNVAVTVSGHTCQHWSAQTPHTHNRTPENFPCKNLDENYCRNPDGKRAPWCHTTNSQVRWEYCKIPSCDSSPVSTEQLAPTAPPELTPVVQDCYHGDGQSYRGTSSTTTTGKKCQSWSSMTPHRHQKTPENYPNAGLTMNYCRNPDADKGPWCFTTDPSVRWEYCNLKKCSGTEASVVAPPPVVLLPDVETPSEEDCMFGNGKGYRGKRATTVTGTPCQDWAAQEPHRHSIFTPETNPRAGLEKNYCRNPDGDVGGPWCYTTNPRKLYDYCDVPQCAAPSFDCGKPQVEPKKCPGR
- assay.remarks: Human plasma plasmin inhibition, Tosyl-Gly-Pro-Lys-pNA substrate
- run.parameters: 100 mM Tris-HCl, pH 7.4, 100 mM NaCl, 0.05% Triton X-100
- Procedure: Protease inhibition was assayed according to published procedures with minor modifications using various proteases and specific chromogenic peptide p-nitroanilide substrates. […] 1. The inhibition constant, Ki is calculated from individual data points using the equation for a tight-binding inhibitor (See Beith, “Proteinase Inhibitors-Proceedings of 2nd Int. Res. Conference”, Fritz, et al. eds., New York, p.4463-4469 (1974)): […]
test.readout: Ki (nM)

{"columns": ["compound", "number"],
 "data": [
  ["Cc1cc2cc(CNC(=O)Cc3cc4cc(C(=N)N)ccc4s3)ccc2[nH]1 [drawing 17 Benzthiophene 5-carboxamidine n=1]", 2700]
]}

---

- tested.system: Human plasma factor Xa (Homo sapiens, UniProt P00742)
- Sequence (P00742 235-488 limits assumed): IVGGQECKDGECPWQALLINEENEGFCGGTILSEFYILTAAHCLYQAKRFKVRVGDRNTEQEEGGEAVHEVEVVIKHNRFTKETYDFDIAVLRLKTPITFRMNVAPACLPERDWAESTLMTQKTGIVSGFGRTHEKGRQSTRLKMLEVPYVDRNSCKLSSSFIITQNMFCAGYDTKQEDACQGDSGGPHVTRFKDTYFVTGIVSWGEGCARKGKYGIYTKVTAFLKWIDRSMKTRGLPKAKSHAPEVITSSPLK
- Sequence (P00742 41-179 partner limits assumed): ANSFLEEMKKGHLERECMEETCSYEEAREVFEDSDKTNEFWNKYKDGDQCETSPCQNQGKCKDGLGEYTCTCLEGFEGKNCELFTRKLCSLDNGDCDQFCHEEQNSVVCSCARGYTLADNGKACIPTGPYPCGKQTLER
- assay.remarks: Human plasma factor Xa inhibition, N-Benzoyl-Ile-Glu-Gly-Arg-pNA substrate
- run.parameters: 50 mM Tris-HCl, pH 7.8, 200 mM NaCl, 0.05% BSA
test.readout: Ki (µM)

{"columns": ["molecule", "tested.system", "display.unit", "number"],
 "data": [
  ["Cc1cc2cc(CNC(=O)Cc3cc4cc(C(=N)N)ccc4s3)ccc2[nH]1 [drawing 17 Benzthiophene 5-carboxamidine n=1]", "Human plasma factor Xa (Homo sapiens, UniProt P00742)", "µM", 17.7]
]}

---

- tested.system: Bovine pancreatic Trypsin (TPCK-treated) (Bos taurus, UniProt P00760)
- Construct: from tissue; host or cells: bovine pancreas
- Sequence (P00760 24-246): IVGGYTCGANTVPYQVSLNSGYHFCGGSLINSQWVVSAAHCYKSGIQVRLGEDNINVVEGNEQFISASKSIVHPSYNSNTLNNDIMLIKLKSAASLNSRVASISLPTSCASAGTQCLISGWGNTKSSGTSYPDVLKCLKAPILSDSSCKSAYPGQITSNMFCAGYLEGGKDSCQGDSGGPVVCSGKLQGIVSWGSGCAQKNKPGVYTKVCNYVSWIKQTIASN
- assay.remarks: Bovine pancreatic trypsin inhibition, N-α-Benzoyl-L-Arg-pNA substrate
- Format: biochemical
- run.parameters: 50 mM Tris-HCl, pH 8.2, 20 mM CaCl2
pKi: −log10 of the molar value.
Given measured pKi, output class 1 if it is greater than or equal to 5 and class 0 if not.

{"columns": ["molecule", "class.name"],
 "data": [
  ["N=C(N)c1ccc2cc(CC(=O)Nc3cccc(N)c3)ccc2c1", "class 1"],
  ["N=C(N)c1ccc2sc(C(=O)Nc3cccc(N)c3)cc2c1", "class 0"],
  ["N=C(N)c1ccc2[nH]c(CC(=O)Nc3cccc(N)c3)cc2c1 [drawing 14 Indole 5-carboxamidine n=1 m=0]", "class 1"],
  ["N=C(N)c1ccc(NC(=O)Cc2nc3cc(C(=N)N)ccc3[nH]2)cc1 [(4-Amidino)Ph]", "class 1"],
  ["N=C(N)c1ccc2[nH]c(CC(=O)Nc3ccc(N)cc3)cc2c1 [drawing 15 Indole 5-carboxamidine n=1 m=0]", "class 1"],
  ["N=C(N)c1ccc2cc(C(=O)NCCc3ccc(N)cc3)ccc2c1", "class 1"],
  ["N=C(N)c1cccc(NC(=O)Cc2nc3cc(C(=N)N)ccc3[nH]2)c1 [(3-Amidino)Ph]", "class 1"],
  ["N=C(N)c1ccc2cc(C(=O)NCc3cccc(N)c3)ccc2c1", "class 1"],
  ["N=C(N)c1ccc2cc(C(=O)Nc3cccc(N)c3)ccc2c1", "class 1"],
  ["N=C(N)c1ccc2sc(CC(=O)NCc3cccc(N)c3)cc2c1", "class 1"],
  ["N=C(N)c1ccc2cc(C(=O)NCc3ccc(N)cc3)ccc2c1", "class 1"],
  ["N=C(N)c1ccc2[nH]c(CC(=O)Nc3ccc4[nH]ccc4c3)nc2c1 [5-Indole]", "class 0"],
  ["N=C(N)c1ccc2[nH]c(CC(=O)Nc3ccc4ncccc4c3)nc2c1 [6-Quinoline]", "class 1"]
]}

---

Some compounds, each annotated with its measured Ki.
- tested.system: Human lung tryptase
- Construct: Human lung tryptase purchased from Cortex Biochem (San Leandro, Calif.) was purified further on a Superdex 200 gel-filtration column
- assay.remarks: Human lung tryptase inhibition, chromogenic GPR-pNA substrate
- Assay type: biochemical
- run.parameters: tryptase 1 nM, GPR-pNA 320 μM, 50 mM Tris-HCl pH 8.0, 37° C.
test.readout: Ki (µM)

{"columns": ["compound", "number"],
 "data": [
  ["CCCNC(=O)Cc1nc2cc(C(=N)N)ccc2[nH]1", 9.6],
  ["N=C(N)c1ccc2[nH]c(CC(=O)NCc3ccc(N)cc3)cc2c1 [drawing 15 Indole 5-carboxamidine n=1 m=1]", 0.44],
  ["N=C(N)c1ccc2[nH]c(CC(=O)Nc3ccc(N)cc3)cc2c1 [drawing 15 Indole 5-carboxamidine n=1 m=0]", 0.2],
  ["CNC(=O)Cc1nc2cc(C(=N)N)ccc2[nH]1", 42.8]
]}

---

- tested.system: Bovine pancreatic Trypsin (TPCK-treated) (Bos taurus)
- Construct: from tissue; host or cells: bovine pancreas
- assay.remarks: Bovine pancreatic trypsin inhibition, N-α-Benzoyl-L-Arg-pNA substrate
- Format: biochemical
- run.parameters: 50 mM Tris-HCl, pH 8.2, 20 mM CaCl2
pKi: −log10 of the molar value.
Given measured pKi, output yes (1) if it is greater than or equal to 5 and no (0) if not.

{"columns": ["compound", "class.name"],
 "data": [
  ["N=C(N)c1ccc2[nH]c(CC(=O)Nc3cccc(N)c3)nc2c1", "no (0)"],
  ["N=C(N)c1ccc2[nH]c(CC(=O)NCc3ccc(N)cc3)cc2c1 [drawing 15 Indole 5-carboxamidine n=1 m=1]", "yes (1)"]
]}

---

- tested.system: Human lung tryptase
- Construct: Human lung tryptase purchased from Cortex Biochem (San Leandro, Calif.) was purified further on a Superdex 200 gel-filtration column
- assay.remarks: Human lung tryptase inhibition, chromogenic GPR-pNA substrate
- Format: biochemical
- run.parameters: the 5th table, unit inferred

{"columns": ["compound", "Ki (nM)"],
 "data": [
  ["Cc1cc2cc(CNC(=O)Cc3ccc4cc(C(=N)N)ccc4c3)ccc2[nH]1 [drawing 17 Naphthalene 2,6-substitution n=1]", 10],
  ["Cc1cc2cc(CNC(=O)Cc3cc4cc(C(=N)N)ccc4s3)ccc2[nH]1 [drawing 17 Benzthiophene 5-carboxamidine n=1]", 41]
]}

---

- tested.system: Human lung tryptase
- Construct: Human lung tryptase purchased from Cortex Biochem (San Leandro, Calif.) was purified further on a Superdex 200 gel-filtration column
- assay.remarks: Human lung tryptase inhibition, chromogenic GPR-pNA substrate
- Assay type: biochemical
- run.parameters: tryptase 1 nM, GPR-pNA 320 μM, 50 mM Tris-HCl pH 8.0, 37° C.
Some molecules, each annotated with its measured Ki.

{"columns": ["molecule", "tested.system", "Ki [µM]"],
 "data": [
  ["N=C(N)c1ccc2[nH]c(CC(=O)NCCc3ccccc3)nc2c1 [X = H n = 2]", "Human lung tryptase", 5.5],
  ["CS(=O)(=O)Nc1ccc(NC(=O)Cc2nc3cc(C(=N)N)ccc3[nH]2)cc1 [(4-N(H)SO2CH3)Ph]", "Human lung tryptase", 3.9],
  ["N=C(N)c1ccc2[nH]c(CC(=O)Nc3ccc4[nH]ccc4c3)nc2c1 [5-Indole]", "Human lung tryptase", 0.81],
  ["N=C(N)c1ccc2[nH]c(CC(=O)Nc3ccccc3)nc2c1 [X = H n = 0]", "Human lung tryptase", 9.5],
  ["N=C(N)c1ccc2[nH]c(CC(=O)Nc3ccc4ccccc4c3)nc2c1 [2-Napthyl]", "Human lung tryptase", 5.2],
  ["Cc1cc2cc(CNC(=O)Cc3cc4cc(C(=N)N)ccc4s3)ccc2[nH]1 [drawing 17 Benzthiophene 5-carboxamidine n=1]", "Human lung tryptase", 0.041],
  ["CS(=O)(=O)Nc1cccc(NC(=O)Cc2nc3cc(C(=N)N)ccc3[nH]2)c1 [(3-N(H)SO2CH3)Ph]", "Human lung tryptase", 7.7],
  ["N=C(N)c1ccc2[nH]c(CC(=O)Nc3cccc(O)c3)nc2c1 [(3-OH)Ph]", "Human lung tryptase", 0.57],
  ["N=C(N)c1ccc2cc(C(=O)NCCc3ccc(N)cc3)ccc2c1", "Human lung tryptase", 0.16]
]}

---

- tested.system: Human r-tissue kallikrein (Homo sapiens, UniProt P06870)
- Sequence (P06870 25-262): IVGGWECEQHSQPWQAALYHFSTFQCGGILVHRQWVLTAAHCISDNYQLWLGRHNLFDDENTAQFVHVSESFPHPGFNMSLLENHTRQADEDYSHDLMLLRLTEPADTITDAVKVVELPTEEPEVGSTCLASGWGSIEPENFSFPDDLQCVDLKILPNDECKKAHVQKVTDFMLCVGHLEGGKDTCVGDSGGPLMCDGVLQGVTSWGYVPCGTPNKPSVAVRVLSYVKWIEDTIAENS
test.readout: Ki

{"columns": ["molecule", "result"],
 "data": [
  ["Cc1cc2cc(CNC(=O)Cc3cc4cc(C(=N)N)ccc4s3)ccc2[nH]1 [drawing 17 Benzthiophene 5-carboxamidine n=1]", "> 100 µM"]
]}

---

Some molecules, each annotated with its measured pKi.
- tested.system: Human plasma thrombin (Homo sapiens)
- Construct: from tissue; host or cells: human plasma
- assay.remarks: Human plasma thrombin inhibition, H-D-Phe-Pip-Arg-pNA substrate
- Type: biochemical
- run.parameters: the 5th table, unit inferred
pKi: −log10 of the molar value.
test.readout: pKi

{"columns": ["molecule", "result.comparator", "number"],
 "data": [
  ["Cc1cc2cc(CNC(=O)Cc3ccc4cc(C(=N)N)ccc4c3)ccc2[nH]1 [drawing 17 Naphthalene 2,6-substitution n=1]", "<", 4.00],
  ["Cc1cc2cc(CNC(=O)Cc3cc4cc(C(=N)N)ccc4s3)ccc2[nH]1 [drawing 17 Benzthiophene 5-carboxamidine n=1]", "=", 4.59]
]}
